Tested on: U87-MG—human, brain glioblastoma
PROTOCOL SUMMARY: CellTiter-Glo cell viability assay, U87-MG
Format: cell-based
pIC50: −log10 of the molar value.
METRIC NAME: pIC50

INPUT: Record lookup: for U87-MG—human, brain glioblastoma, what pIC50 belongs to [Cl-].[Li+] [Sample L, Lithium Chloride] ?
OUTPUT: < 2.52

###

System: U87-MG—human, brain glioblastoma
PROTOCOL SUMMARY: CellTiter-Glo cell viability assay, U87-MG
Format: cell-based
SETUP CONDITIONS: U87-MG; 72 hours treatment; average of two values
METRIC NAME: pIC50
Would you please state pIC50, meaning minus log10 of the concentration in mol/L, as a bare number?

INPUT: Requested field: pIC50. Item: CCc1c2c(nc3ccc(O)cc13)-c1cc3c(c(=O)n1C2)COC(=O)[C@]3(O)CC [SN38]
OUTPUT: 5.92

###

Test system: MV411—human, myelomonocytic leukemia
PROTOCOL SUMMARY: CellTiter-Glo cell viability assay, MV411
Assay type: cell-based
SETUP CONDITIONS: MV411; 72 hours treatment; average of two values
METRIC NAME: IC50
Answer with the number, then the unit.

INPUT: Tell me the measured IC50 of CCc1c2c(nc3ccc(O)cc13)-c1cc3c(c(=O)n1C2)COC(=O)[C@]3(O)CC , please.
OUTPUT: 1170 nM

###

Test system: H1437—human, lung adenocarcinoma, non-small cell lung cancer
PROTOCOL SUMMARY: CellTiter-Glo cell viability assay, H1437
Format: cell-based
SETUP CONDITIONS: H1437; 72 hours treatment; average of two values
METRIC NAME: pIC50
Reminder that pIC50 means the negative base-10 logarithm of the concentration expressed in mol/L.

INPUT: I have this compound here, CCc1c2c(nc3ccc(O)cc13)-c1cc3c(c(=O)n1C2)COC(=O)[C@]3(O)CC , and I need its recorded pIC50.
OUTPUT: 6.70

###

System: MV411—human, myelomonocytic leukemia
PROTOCOL SUMMARY: CellTiter-Glo cell viability assay, MV411
Type: cell-based
METRIC NAME: IC50

INPUT: Request body: readout IC50, system MV411—human, myelomonocytic leukemia, query [Cl-].[Li+] [Sample L, Lithium Chloride] . Return the value.
OUTPUT: > 6 mM

These measurements were taken from patent US12370209B2.
